The values you see were collected from patent US20080090805A1.

- assay-system: native CB1 receptors (Rattus norvegicus, UniProt P20272)
- Sequence (P20272 whole entry): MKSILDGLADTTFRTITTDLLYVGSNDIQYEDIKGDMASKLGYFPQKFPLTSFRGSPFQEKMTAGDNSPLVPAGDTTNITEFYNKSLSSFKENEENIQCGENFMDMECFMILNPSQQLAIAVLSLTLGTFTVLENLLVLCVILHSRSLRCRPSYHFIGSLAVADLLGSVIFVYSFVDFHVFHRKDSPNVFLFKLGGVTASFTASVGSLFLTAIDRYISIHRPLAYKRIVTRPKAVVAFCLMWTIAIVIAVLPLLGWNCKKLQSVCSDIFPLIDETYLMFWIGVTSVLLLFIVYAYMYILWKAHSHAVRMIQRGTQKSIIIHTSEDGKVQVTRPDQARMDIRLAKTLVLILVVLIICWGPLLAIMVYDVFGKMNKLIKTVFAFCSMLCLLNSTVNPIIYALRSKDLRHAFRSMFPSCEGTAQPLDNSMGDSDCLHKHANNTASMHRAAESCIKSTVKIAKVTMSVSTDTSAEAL
- test: CB1 receptor rat binding assay ([3H]SR141716A, rat brain membranes)
- cond: rat brain membranes, [3H]SR141716A; read-out: Binding rat pKi (converted)
I'd appreciate it if you could supply log10(Ki) values for the items below.
# values: log10(Ki), units nM

Exam item: Item O=C(NCc1ccccc1)c1ccc2c(c1)N=C(c1cccc(Cl)c1)c1ccccc1S2 [drawing 1328] has what recorded log10(Ki)?
Marked response: 0.50

Exam item: Check O=C(NCc1ccco1)c1ccc2c(c1)N=C(c1ccccc1F)c1ccccc1S2 [drawing 1435] too.
Marked response: 1.70

Exam item: Check CC(NC(=O)c1ccc2c(c1)N=C(c1cccc(Cl)c1)c1ccccc1S2)c1ccccc1 (stereo not shown) [drawing 1465] too.
Marked response: 0.90

Exam item: Check Cc1ccc(CNC(=O)c2ccc3c(c2)N=C(c2ccc(Cl)s2)c2ccccc2S3)o1 [drawing 1223] too.
Marked response: -0.30

Exam item: Check O=C(NCCc1cccnc1)c1ccc2c(c1)N=C(c1ccc(Cl)cc1)c1ccccc1S2 [drawing 1334] too.
Marked response: 1.40

Exam item: Check O=C(NCc1cccs1)c1ccc2c(c1)N=C(c1cccc(Cl)c1)c1ccccc1S2 [drawing 1272] too.
Marked response: 0.30

Exam item: Check Cc1ccc(CNC(=O)c2ccc3c(c2)N=C(c2sccc2C)c2ccccc2S3)o1 [drawing 1400] too.
Marked response: 0.80

Exam item: Check O=C(NCc1ccncc1)c1ccc2c(c1)N=C(c1ccc(F)cc1)c1ccccc1S2 [drawing 1443] too.
Marked response: 1.70

Exam item: Check O=C(NC1CCC(F)(F)CC1)c1ccc2c(c1)N=C(c1cccc(Cl)c1)c1ccccc1S2 [drawing 1242] too.
Marked response: 0.00

Exam item: Check COc1ccc(C2=Nc3cc(C(=O)NNC(=O)c4ccccc4)ccc3Sc3ccccc32)cc1 [drawing 1535] too.
Marked response: 1.90

Exam item: Check O=C(NCc1cccs1)c1ccc2c(c1)N=C(c1ccc(Cl)cc1)c1ccccc1S2 [drawing 1279] too.
Marked response: 0.30

Exam item: Check O=C(NCc1ccco1)c1ccc2c(c1)N=C(c1cccc(F)c1)c1ccccc1S2 [drawing 1252] too.
Marked response: 1.20

Exam item: Check O=C(NCc1cccc(Cl)c1)c1ccc2c(c1)N=C(C1CCCCC1)c1cc(F)ccc1S2 too.
Marked response: 1.00

Exam item: Check O=C(NCCc1ccccn1)c1ccc2c(c1)N=C(c1cccc(Cl)c1)c1ccccc1S2 [drawing 1475] too.
Marked response: 1.80

Exam item: Check CCCCNC(=O)c1ccc2c(c1)N=C(c1ccc(Cl)cn1)c1ccccc1S2 [drawing 1501] too.
Marked response: 1.00

Exam item: Check CCCC1=Nc2cc(C(=O)NCc3ccc(F)cc3)ccc2Sc2ccccc21 [drawing 1529] too.
Marked response: 1.90

Exam item: Check O=C(NCCCC(F)(F)F)c1ccc2c(c1)N=C(c1cccc(F)c1)c1ccccc1S2 [drawing 1248] too.
Marked response: 0.00

Exam item: Check O=C(NCCc1ccc(Cl)cc1)c1ccc2c(c1)N=C(N1CCCCC1)c1ccccc1S2 [drawing 1345] too.
Marked response: 0.60

Exam item: Check O=C(NN1CCCCC1)c1ccc2c(c1)N=C(c1ccc(F)cc1)c1ccccc1S2 [drawing 1207] too.
Marked response: 1.00
